# Experimental System: SphK1 (Homo sapiens, UniProt Q9NYA1)
# Construct: His tag; made in house; host or cells: E. coli BL21-Gold (DE3)
# Sequence (Q9NYA1 whole entry): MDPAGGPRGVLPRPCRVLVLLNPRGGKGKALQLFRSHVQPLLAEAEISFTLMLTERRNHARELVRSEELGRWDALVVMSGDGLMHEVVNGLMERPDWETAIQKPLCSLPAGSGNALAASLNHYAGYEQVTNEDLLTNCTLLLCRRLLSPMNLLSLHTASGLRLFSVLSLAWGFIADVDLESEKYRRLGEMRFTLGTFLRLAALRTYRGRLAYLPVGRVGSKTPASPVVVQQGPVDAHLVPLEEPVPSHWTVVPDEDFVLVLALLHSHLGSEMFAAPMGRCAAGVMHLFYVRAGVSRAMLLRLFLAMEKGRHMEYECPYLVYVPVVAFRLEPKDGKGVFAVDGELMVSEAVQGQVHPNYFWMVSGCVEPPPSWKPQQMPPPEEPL
# Test Details: Isothermal titration calorimetry
# Type: binding
Measurement Kind: Kd (µM)
Give bare numbers, in µM.

Kd reported for this compound O=c1c(O)c(-c2ccc(O)c(O)c2)oc2cc(O)cc(O)c12 : 125

----------
# Experimental System: SphK1 (Homo sapiens)
pIC50: −log10 of the molar value.
Measurement Kind: pIC50

For reference, reported pIC50 for O=c1c(O)c(-c2ccc(O)c(O)c2)oc2cc(O)cc(O)c12 [Quercetin, quercetin] stands at ~5.55

----------
# Experimental System: SphK1 (Homo sapiens, UniProt Q9NYA1)
# Construct: His tag; made in house; host or cells: E. coli BL21-Gold (DE3)
# Test Details: Isothermal titration calorimetry
# Assay type: binding
# Assay Conditions: ITC, 25 °C, sequential binding, site 4; read-out: Dissociation Constant KD4
Measurement Kind: Kd (µM)
Answers are plain numbers, in µM.

# Kd (compound: O=c1c(O)c(-c2ccc(O)c(O)c2)oc2cc(O)cc(O)c12 ) is 10.7

----------
# Experimental System: SphK1 (Homo sapiens)
# Construct: His tag; made in house; host or cells: E. coli BL21-Gold (DE3)
# Test Details: Isothermal titration calorimetry
# Format: binding
# Assay Conditions: ITC, 25 °C, single binding site model; read-out: Dissociation Constant KD
Measurement Kind: pKd
Answers are plain numbers, as −log10 of the molar value.

SphK1 (Homo sapiens) pKd of COc1cc(CNC(=O)CCCC/C=C/C(C)C)ccc1O is 5.01

----------
# Experimental System: SphK1 (Homo sapiens)
# Construct: His tag; made in house; host or cells: E. coli BL21-Gold (DE3)
# Test Details: Fluorescence binding studies (Trp quenching, modified Stern-Volmer)
# Assay Conditions: from fluorescence binding constant; read-out: Dissociation constant KD
Measurement Kind: pKd
Answers are plain numbers, as −log10 of the molar value.

{"columns": ["Query Smiles", "pKd"],
 "data": [
  ["COc1cc(CNC(=O)CCCC/C=C/C(C)C)ccc1O", 4.18]
]}

// switching to the query compound
# compound O=c1c(O)c(-c2ccc(O)c(O)c2)oc2cc(O)cc(O)c12 ; its pKd = 5.64

// provenance: paper PMC6904568
